# tested system: Protein kinase C delta type (Homo sapiens)
# Sequence (Q05655 whole entry): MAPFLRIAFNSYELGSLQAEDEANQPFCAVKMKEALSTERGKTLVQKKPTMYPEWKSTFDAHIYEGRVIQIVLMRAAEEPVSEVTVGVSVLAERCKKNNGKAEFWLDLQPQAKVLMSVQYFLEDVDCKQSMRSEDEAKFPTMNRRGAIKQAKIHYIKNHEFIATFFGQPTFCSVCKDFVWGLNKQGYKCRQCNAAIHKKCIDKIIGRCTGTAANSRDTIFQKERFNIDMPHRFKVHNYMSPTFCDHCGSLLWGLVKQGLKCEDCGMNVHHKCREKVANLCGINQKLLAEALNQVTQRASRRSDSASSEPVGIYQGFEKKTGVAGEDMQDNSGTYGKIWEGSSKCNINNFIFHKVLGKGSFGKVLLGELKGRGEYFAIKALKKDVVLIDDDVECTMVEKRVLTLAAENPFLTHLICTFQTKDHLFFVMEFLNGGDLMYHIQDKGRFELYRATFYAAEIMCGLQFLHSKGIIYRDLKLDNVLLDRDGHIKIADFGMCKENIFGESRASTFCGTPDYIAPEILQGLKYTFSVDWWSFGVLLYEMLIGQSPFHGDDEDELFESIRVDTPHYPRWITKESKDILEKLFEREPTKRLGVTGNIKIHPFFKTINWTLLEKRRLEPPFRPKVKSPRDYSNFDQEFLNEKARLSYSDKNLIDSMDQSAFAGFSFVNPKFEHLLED
# test name: Inhibition of [3H]-phorbol 12,13-dibutyrate (PDBu) binding to human recombinant protein kinase C delta
Below, each of the molecules is paired with its reported Ki value.

molecule: CCCCCCCCCCCCCC(=O)O[C@@H]1[C@@H](C)[C@@]2(O)[C@@H](C=C(CO)C[C@]3(O)C(=O)C(C)=C[C@@H]23)[C@@H]2C(C)(C)[C@]12OC(C)=O [PHORBOL MYRISTATE ACETATE]
Ki: 0.8 nM

molecule: CCCCCCCCC#Cc1ccc2c(c1)C[C@@H](CO)NC(=O)[C@H](C(C)C)N2C
Ki: 114 nM

Continue with the next molecule.
# Ki of CCCCCCCCC#Cc1ccc2c(c1)[C@](C)(C(C)C)[C@H]1C(=O)N[C@H](CO)[C@@H]21 = 1630 nM

---

# tested system: UniProt Q02156
# Sequence (Q02156 whole entry): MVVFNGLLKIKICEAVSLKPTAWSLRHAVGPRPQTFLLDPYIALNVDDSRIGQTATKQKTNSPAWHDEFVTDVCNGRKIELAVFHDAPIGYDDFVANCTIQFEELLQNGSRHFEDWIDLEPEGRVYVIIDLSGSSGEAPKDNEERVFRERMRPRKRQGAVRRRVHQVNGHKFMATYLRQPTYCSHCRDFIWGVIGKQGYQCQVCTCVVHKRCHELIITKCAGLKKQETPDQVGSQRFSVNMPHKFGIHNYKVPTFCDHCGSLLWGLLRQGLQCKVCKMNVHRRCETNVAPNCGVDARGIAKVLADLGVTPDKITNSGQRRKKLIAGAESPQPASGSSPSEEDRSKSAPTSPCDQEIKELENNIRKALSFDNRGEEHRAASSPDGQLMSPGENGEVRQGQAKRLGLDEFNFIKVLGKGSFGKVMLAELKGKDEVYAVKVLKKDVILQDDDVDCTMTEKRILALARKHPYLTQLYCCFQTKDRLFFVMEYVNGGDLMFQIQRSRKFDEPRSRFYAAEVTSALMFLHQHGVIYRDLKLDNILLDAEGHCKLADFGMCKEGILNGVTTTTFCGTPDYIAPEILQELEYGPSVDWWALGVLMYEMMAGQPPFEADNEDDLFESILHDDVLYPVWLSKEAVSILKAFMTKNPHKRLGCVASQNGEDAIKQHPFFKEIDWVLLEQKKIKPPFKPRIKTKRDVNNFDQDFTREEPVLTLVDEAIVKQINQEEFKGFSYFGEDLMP
# test name: Inhibition of [3H]-phorbol 12,13-dibutyrate (PDBu) binding to human recombinant protein kinase C epsilon
metric: Ki
Express the reported value numerically, then name its unit.

molecule: CCCCCCCCC#Cc1ccc2c(c1)C[C@@H](CO)NC(=O)[C@H](C(C)C)N2C
Ki: 40 nM

molecule: CCCCCCCCC#Cc1ccc2c(c1)[C@](C)(C(C)C)[C@H]1C(=O)N[C@H](CO)[C@@H]21
Ki: 469 nM

Continue with the next molecule.
# Ki of CCCCCCCCCCCCCC(=O)O[C@@H]1[C@@H](C)[C@@]2(O)[C@@H](C=C(CO)C[C@]3(O)C(=O)C(C)=C[C@@H]23)[C@@H]2C(C)(C)[C@]12OC(C)=O [PHORBOL MYRISTATE ACETATE] = 0.45 nM

---

# tested system: Protein kinase C beta type (Homo sapiens, UniProt P05771)
# Sequence (P05771 whole entry): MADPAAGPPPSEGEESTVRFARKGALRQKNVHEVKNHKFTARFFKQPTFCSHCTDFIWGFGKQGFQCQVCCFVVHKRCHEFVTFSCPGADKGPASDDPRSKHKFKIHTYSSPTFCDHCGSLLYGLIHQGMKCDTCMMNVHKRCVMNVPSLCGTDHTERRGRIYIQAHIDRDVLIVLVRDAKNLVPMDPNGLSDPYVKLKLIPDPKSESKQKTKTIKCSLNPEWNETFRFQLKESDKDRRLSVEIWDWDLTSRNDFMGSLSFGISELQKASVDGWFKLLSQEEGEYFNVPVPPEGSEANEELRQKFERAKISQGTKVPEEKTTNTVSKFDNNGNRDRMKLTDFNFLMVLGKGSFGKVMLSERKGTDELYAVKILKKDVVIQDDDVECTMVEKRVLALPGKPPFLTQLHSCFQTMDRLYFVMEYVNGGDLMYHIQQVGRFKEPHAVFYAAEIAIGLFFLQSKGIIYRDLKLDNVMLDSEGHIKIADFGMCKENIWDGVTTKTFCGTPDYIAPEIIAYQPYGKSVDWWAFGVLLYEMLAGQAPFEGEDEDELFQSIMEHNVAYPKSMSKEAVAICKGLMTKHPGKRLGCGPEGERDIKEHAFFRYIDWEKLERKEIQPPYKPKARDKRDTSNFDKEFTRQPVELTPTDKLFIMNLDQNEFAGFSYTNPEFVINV
# test name: Inhibition of [3H]-phorbol 12,13-dibutyrate (PDBu) binding to human recombinant protein kinase C beta
Below, each of the compounds is paired with its reported Ki value.
Give your result in nM as a bare value.

compound: CCCCCCCCCCCCCC(=O)O[C@@H]1[C@@H](C)[C@@]2(O)[C@@H](C=C(CO)C[C@]3(O)C(=O)C(C)=C[C@@H]23)[C@@H]2C(C)(C)[C@]12OC(C)=O [PHORBOL MYRISTATE ACETATE]
metric: Ki
experimental value: 1.8

Continue with the next compound.
Reported Protein kinase C beta type (Homo sapiens, UniProt P05771) Ki for item CCCCCCCCC#Cc1ccc2c(c1)C[C@@H](CO)NC(=O)[C@H](C(C)C)N2C was 70

---

Below, each of the molecules is paired with its reported pKi value.
# tested system: Protein kinase C alpha type (Homo sapiens)
# test name: Inhibition of [3H]-phorbol 12,13-dibutyrate (PDBu) binding to human recombinant protein kinase C alpha
Scale explanation: pKi corresponds to minus log10 of a concentration expressed in moles per litre.

# pKi of CCCCCCCCC#Cc1ccc2c(c1)[C@](C)(C(C)C)[C@H]1C(=O)N[C@H](CO)[C@@H]21 = 6.24

# pKi of CCCCCCCCC#Cc1ccc2c(c1)C[C@@H](CO)NC(=O)[C@H](C(C)C)N2C = 7.64
